Values were extracted from PubChem BioAssay (EPA / NIEHS).

Read-out: Interleukin-1 alpha (IL1a), IL1A (gene 3552)
EXPERIMENT_SUMMARY: BSK_LPS_IL1a: BioMAP Diversity Plus: LPS Assay for Interleukin-1 alpha (IL1a) Biomarker Activity (AID 2283080)
CONDITION_CONTEXT: primary human HUVEC with PBMC; actives raise or lower the signal
Active and inactive are the calls of the source. How the source made its calls: active means hit-call score of the fitted dose curve at least 0.9, where 1 is the maximum; inactive means score below 0.9.
Tick one outcome: label 1 = active, label 0 = inactive

Solved entries (count: 2):
{"columns": ["COMPOUND", "CLASS_NAME"],
 "data": [
  ["CC(C)(C)C(=O)CC(=O)C(F)(F)C(F)(F)C(F)(F)F", "label 0"],
  ["O=P(O)(O)OCCC(F)(F)C(F)(F)C(F)(F)C(F)(F)C(F)(F)C(F)(F)F", "label 0"]
]}

*Q* Test call, this compound: `O=C(O)C(F)(F)C(F)(F)C(F)(F)F`
*A* label 0

*Q* Test call, this compound: `FC(F)(Br)C(F)(F)C(F)(F)C(F)(F)C(F)(F)C(F)(F)Br`
*A* label 0

*Q* Test call, this compound: `O[Si](c1ccccc1)(c1ccccc1)c1ccccc1`
*A* label 0
